- Tested on: T1, human G-protein-coupled receptor family C group 5 member D (GPRC5D) (human, UniProt Q9NZD1 1-345)
- T1 construct: whole, on cells; also called human GPRC5D protein
- T1 sequence (Q9NZD1 whole entry): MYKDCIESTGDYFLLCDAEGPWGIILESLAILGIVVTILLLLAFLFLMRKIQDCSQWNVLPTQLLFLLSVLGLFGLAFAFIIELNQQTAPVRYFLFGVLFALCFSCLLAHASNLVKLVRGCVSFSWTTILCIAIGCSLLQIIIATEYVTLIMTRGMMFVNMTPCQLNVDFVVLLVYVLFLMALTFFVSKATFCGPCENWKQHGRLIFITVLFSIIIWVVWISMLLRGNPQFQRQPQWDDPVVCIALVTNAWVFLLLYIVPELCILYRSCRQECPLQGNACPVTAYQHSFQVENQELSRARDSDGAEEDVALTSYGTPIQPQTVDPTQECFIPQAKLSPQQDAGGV
- Procedure summary: FACS, CHO-K1/GPRC5D
Could you please mark true (1) for values of Bottom below 9000 and false (0) for values at or above it?

Binder	Class name
37B9C4-XI (antibody, V domains shown, also called 37B9C4 (chimeric); 37-XI) VH: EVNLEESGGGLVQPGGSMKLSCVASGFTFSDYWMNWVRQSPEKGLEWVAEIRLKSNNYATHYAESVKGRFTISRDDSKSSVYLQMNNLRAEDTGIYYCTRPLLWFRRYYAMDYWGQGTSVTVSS VL: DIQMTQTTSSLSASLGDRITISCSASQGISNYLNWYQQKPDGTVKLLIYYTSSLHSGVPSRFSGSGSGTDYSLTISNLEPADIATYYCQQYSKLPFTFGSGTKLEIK	false (0)
37-H3L3 (antibody, V domains shown, humanized 37B9C4, VH v3 x VL v3) VH: EVQLVESGGGLVQPGGSLRLSCAASGFTFSDYWMNWVRQSPGKGLEWVAEIRLKSNNYATHYAESVKGRFTISRDDSKSSVYLQMNSLRAEDTAVYYCTRPLLWFRRYYAMDYWGQGTLVTVSS VL: DIQMTQSPSSLSASVGDRITITCSASQGISNYLNWYQQKPGKTVKLLIYYTSSLHSGVPSRFSGSGSGTDYTLTISSLQPEDFATYYCQQYSKLPFTFGSGTKLEIK	true (1)
37-H1L1 (antibody, V domains shown, humanized 37B9C4, VH v1 x VL v1; also called 37B9C4 (H1L1)) VH: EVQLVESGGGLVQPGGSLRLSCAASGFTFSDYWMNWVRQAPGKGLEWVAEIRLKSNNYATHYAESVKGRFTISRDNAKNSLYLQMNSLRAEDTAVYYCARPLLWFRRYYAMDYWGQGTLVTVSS VL: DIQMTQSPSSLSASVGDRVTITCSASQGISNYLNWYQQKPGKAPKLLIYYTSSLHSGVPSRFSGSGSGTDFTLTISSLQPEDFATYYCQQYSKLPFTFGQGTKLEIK	false (0)
37-H3L1 (antibody, V domains shown, humanized 37B9C4, VH v3 x VL v1) VH: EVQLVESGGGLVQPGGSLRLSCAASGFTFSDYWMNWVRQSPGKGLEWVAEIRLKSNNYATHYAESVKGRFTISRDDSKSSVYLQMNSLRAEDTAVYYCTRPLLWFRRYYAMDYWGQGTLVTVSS VL: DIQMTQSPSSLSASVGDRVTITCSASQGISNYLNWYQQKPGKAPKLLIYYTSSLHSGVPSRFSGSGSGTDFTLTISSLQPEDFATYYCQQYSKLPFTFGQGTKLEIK	true (1)
